# ASSAY_TARGET: cloned human H3 receptor, stably expressed in SK-N-MC cells (Homo sapiens)
# Sequence (Q9Y5N1 whole entry): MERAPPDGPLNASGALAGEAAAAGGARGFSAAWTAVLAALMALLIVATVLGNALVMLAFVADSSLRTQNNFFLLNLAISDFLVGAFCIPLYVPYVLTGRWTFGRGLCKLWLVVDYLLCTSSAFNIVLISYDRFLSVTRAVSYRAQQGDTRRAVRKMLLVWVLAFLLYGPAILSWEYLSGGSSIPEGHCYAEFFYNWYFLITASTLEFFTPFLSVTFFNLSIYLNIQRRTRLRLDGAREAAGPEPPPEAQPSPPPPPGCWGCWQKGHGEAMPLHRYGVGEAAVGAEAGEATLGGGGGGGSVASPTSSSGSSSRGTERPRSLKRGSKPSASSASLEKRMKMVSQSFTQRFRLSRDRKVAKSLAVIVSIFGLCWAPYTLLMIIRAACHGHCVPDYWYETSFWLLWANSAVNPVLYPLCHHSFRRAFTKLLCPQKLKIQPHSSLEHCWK
Overview of recorded pKi for various compounds
FYI, pKi means -log10 of a concentration in mol per litre.

Entry c1cc([C@H]2CN3CCC[C@H]3c3cc(OCCCN4CCOCC4)ccc32)cs1 (relative stereo) ; pKi = 8.52

The compound listed as c1csc([C@H]2CN3CCC[C@H]3c3cc(OCCCN4CCOCC4)ccc32)n1 (relative stereo) shows pKi equal to 8.52

In plain terms, N#Cc1cccc([C@H]2CN3CCC[C@H]3c3cc(OCCCN4CCOCC4)ccc32)c1 (relative stereo) has a documented pKi of 8.70

Value of pKi reported for the compound CSc1ccc([C@H]2CN3CCC[C@H]3c3cc(C#CCCN4CCCCC4)ccc32)cc1 (relative stereo) [Example 98B] is 8.52
